Target: T1, recombinant ICAM-1 Fc chimera (UniProt P05362 28-480, limits assumed)
T1 construct: amine-coupled to the BIAcore chip; not shown: Fc part, not described
T1 sequence (P05362 28-480 limits assumed, change not shown): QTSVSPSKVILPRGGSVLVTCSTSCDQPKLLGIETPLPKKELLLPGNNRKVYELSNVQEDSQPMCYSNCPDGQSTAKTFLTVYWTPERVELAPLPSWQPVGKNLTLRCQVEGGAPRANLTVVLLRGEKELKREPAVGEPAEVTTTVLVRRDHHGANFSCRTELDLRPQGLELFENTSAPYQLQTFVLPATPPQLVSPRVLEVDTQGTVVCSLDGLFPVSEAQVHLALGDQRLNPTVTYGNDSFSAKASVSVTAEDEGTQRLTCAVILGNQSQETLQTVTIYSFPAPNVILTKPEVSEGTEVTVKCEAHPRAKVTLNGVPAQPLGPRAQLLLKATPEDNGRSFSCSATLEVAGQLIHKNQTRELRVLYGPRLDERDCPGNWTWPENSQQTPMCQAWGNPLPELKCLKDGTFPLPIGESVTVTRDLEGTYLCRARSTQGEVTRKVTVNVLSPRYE
Assay: BIAcore; Scatchard plots at steady state
measuredParameter: Kd

| binder | Kd |
| --- | --- |
| recombinant soluble αL I-domain E284C/E301C (locked open) (receptor) GNVDLVFLFDGSMSLQPDEFQKILDFMKDVMKKLSNTSYQFAAVQFSTSYKTEFDFSDYVKRKDPDALLKHVKHMLLLTNTFGAINYVATEVFREELGARPDATKVLIIITDGEATDSGNIDAAKDIIRYIIGIGKHFQTKESQETLHKFASKPASCFVKILDTFEKLKDLFTCLQKKIY | 0.36 µM |

Consider the binder recombinant soluble αL I-domain L161C/T300C (locked open, intermediate affinity) (receptor) GNVDLVFLFDGSMSLQPDEFQKILDFMKDVMKKCSNTSYQFAAVQFSTSYKTEFDFSDYVKRKDPDALLKHVKHMLLLTNTFGAINYVATEVFREELGARPDATKVLIIITDGEATDSGNIDAAKDIIRYIIGIGKHFQTKESQETLHKFASKPASEFVKILDTFEKLKDLFCELQKKIY and give its measured Kd.
4.8 µM

Consider the binder recombinant soluble αL I-domain K160C/F299C (locked open, intermediate affinity) (receptor) GNVDLVFLFDGSMSLQPDEFQKILDFMKDVMKCLSNTSYQFAAVQFSTSYKTEFDFSDYVKRKDPDALLKHVKHMLLLTNTFGAINYVATEVFREELGARPDATKVLIIITDGEATDSGNIDAAKDIIRYIIGIGKHFQTKESQETLHKFASKPASEFVKILDTFEKLKDLCTELQKKIY and give its measured Kd.
4.39 µM

Consider the binder recombinant soluble αL I-domain stabilized in the open conformation (K287C/K294C), G128-Y307, E. coli (receptor, introduced disulfide C287-C294, numbers as printed, probably mature αL numbering; also called open I-domain; soluble open I-domain) GNVDLVFLFDGSMSLQPDEFQKILDFMKDVMKKLSNTSYQFAAVQFSTSYKTEFDFSDYVKRKDPDALLKHVKHMLLLTNTFGAINYVATEVFREELGARPDATKVLIIITDGEATDSGNIDAAKDIIRYIIGIGKHFQTKESQETLHKFASKPASEFVCILDTFECLKDLFTELQKKIY and give its measured Kd.
0.18 µM

Consider the binder recombinant soluble αL I-domain L289C/K294C (locked closed) (receptor) GNVDLVFLFDGSMSLQPDEFQKILDFMKDVMKKLSNTSYQFAAVQFSTSYKTEFDFSDYVKRKDPDALLKHVKHMLLLTNTFGAINYVATEVFREELGARPDATKVLIIITDGEATDSGNIDAAKDIIRYIIGIGKHFQTKESQETLHKFASKPASEFVKICDTFECLKDLFTELQKKIY and give its measured Kd.
1760 µM

Consider the binder recombinant soluble αL I-domain L161C/F299C (locked open, intermediate affinity) (receptor) GNVDLVFLFDGSMSLQPDEFQKILDFMKDVMKKCSNTSYQFAAVQFSTSYKTEFDFSDYVKRKDPDALLKHVKHMLLLTNTFGAINYVATEVFREELGARPDATKVLIIITDGEATDSGNIDAAKDIIRYIIGIGKHFQTKESQETLHKFASKPASEFVKILDTFEKLKDLCTELQKKIY and give its measured Kd.
3.76 µM
